These data points were gathered from ChEMBL document CHEMBL1132903.

MEASUREMENT_TARGET: Pancreatic elastase (Sus scrofa) (UniProt P08419+P00772)
ASSAY: Inhibition constant for uncompetitive inhibition of Suc-AAPA and Pancreatic elastase
Type: protein assay
Where a SMILES comes first, the peptide text is derived from it.
RESULT_TYPE: Ki' (µM)

molecule=CC[C@@H](C)[C@@H](NC(=O)[C@@H](C)NC(=O)[C@@H](CCC(=O)O)NC(=O)[C@@H](CC(C)C)NC(=O)[C@@H](Cc1ccccc1)NC(=O)[C@H](N)CCSC)C(=O)N1CCC[C@H]1C(=O)N[C@@H](CCSC)C(=O)N[C@@H](CO)C(=O)O result_type=Ki' value_observed=1200

a: CSCC[C@H](N)C(=O)N[C@@H](Cc1ccccc1)C(=O)N[C@@H](CC(C)C)C(=O)N[C@@H](C)C(=O)O (H-MFLA-OH)
b: CC[C@@H](C)[C@H](NC(=O)[C@H](CO)NC(=O)[C@H](CCSC)NC(=O)[C@@H]1CCCN1C(=O)[C@H](NC(=O)[C@@H](C)NC(=O)[C@@H](CCC(=O)O)NC(=O)[C@@H](CC(C)C)NC(=O)[C@@H](Cc1ccccc1)NC(=O)[C@H](N)CCSC)[C@H](C)CC)C(=O)O
c: CC[C@@H](C)[C@@H](NC(=O)[C@@H](CC)NC(=O)[C@@H](CCC(=O)O)NC(=O)[C@@H](CC(C)C)NC(=O)[C@@H](Cc1ccccc1)NC(=O)[C@H](N)CCSC)C(=O)N1CCC[C@H]1C(=O)O
List items by Ki' in falling order. Reply with the item labels sorted in the order that was asked for.
a, b, c
